- Test system: Hs-578-T (Breast Carcinoma)
- Assay Comment: Bliss excess, mean over the matrix (fraction); higher = more synergy;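 note: after 72 h of two-drug dosing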
Measurement Name: Bliss excess

>>> test_result("CN(C)CCCOc1ccc(-c2ccc3ncc4c(c3c2)n(C2CCOCC2)c(=O)n4C)cn1 [AZD0156] + C[C@@H]1COCCN1C2=NC(=NC(=C2)C3(CC3)[S@](=N)(=O)C)C4=C5C=CNC5=NC=C4 [AZD6738] (first compound max 1 µM, 7x7, partner max 10 µM)")
-0.0157
>>> test_result("C[C@@H](Nc1cc(F)cc(F)c1)c1cc(C(=O)N(C)C)cc2c(=O)cc(N3CCOCC3)oc12 [AZD8186] + C1CN(CCC1(C(=O)N[C@@H](CCO)C2=CC=C(C=C2)Cl)N)C3=NC=NC4=C3C=CN4 [AZD5363] (first compound max 10 µM, 7x7, partner max 10 µM)")
-0.0815
>>> test_result("Cc1nc(Nc2ncc(C(=O)Nc3c(C)cccc3Cl)s2)cc(N2CCN(CCO)CC2)n1 [Dasatinib] + CC(=O)Nc1cccc(-n2c(=O)n(C3CC3)c(=O)c3c(Nc4ccc(I)cc4F)n(C)c(=O)c(C)c32)c1 [Trametinib] (first compound max 2 µM, 7x7, partner max 1 µM)")
-0.0526

Exercise: Jot down Bliss excess (Hs-578-T (Breast Carcinoma)) of COc1cccc(OCCCN)c1-c1cc(Nc2cnc(C#N)cn2)n[nH]1 [Prexasertib] + Cc1cc2ncnn2cc1Nc1ncc2c(n1)n(C1CCOCC1)c(=O)n2C [AZD7648] (first compound max 1 µM, 7x7, partner max 10 µM) .
Key: -0.0453

Exercise: Jot down Bliss excess (Hs-578-T (Breast Carcinoma)) of Cc1nc(-c2cn3c(n2)-c2ccc(-c4cnn(C(C)(C)C(N)=O)c4)cc2OCC3)n(C(C)C)n1 [Taselisib] + O=C(Nc1ccc2[nH]nc(-c3ccncc3)c2c1)[C@@H]1CCN(CC(=O)N2CCN(c3ccc(-c4ncccn4)cc3)CC2)C1 [SCH772984] (first compound max 10 µM, 7x7, partner max 5 µM) .
Key: 0.0748

Exercise: Jot down Bliss excess (Hs-578-T (Breast Carcinoma)) of CS(=O)(=O)CCNCc1ccc(-c2ccc3ncnc(Nc4ccc(OCc5cccc(F)c5)c(Cl)c4)c3c2)o1 [Lapatinib] + NC1(c2ccc(-c3nc4ccn5c(=O)[nH]nc5c4cc3-c3ccccc3)cc2)CCC1 [MK-2206] (first compound max 10 µM, 7x7, partner max 10 µM) .
Key: 0.0381

Exercise: Jot down Bliss excess (Hs-578-T (Breast Carcinoma)) of COc1nnc2ccc(N3CCC(c4ccc(OCCN5CCN(C)C(=O)[C@H]5C)cc4)CC3)nn12 [AZD5153] + Cn1cnc2c(F)c(Nc3ccc(Br)cc3Cl)c(C(=O)NOCCO)cc21 [Selumetinib] (first compound max 1 µM, 7x7, partner max 10 µM) .
Key: -0.0344

----------
- Test system: KP-1N (Pancreatic Carcinoma)
- Assay Comment: Bliss excess, mean over the matrix (fraction); higher = more synergy
Assign 1 (yes) to entries whose Bliss excess meets or exceeds -0.02; assign 0 (no) to the rest.

Solved entries (count: 3):
>>> label_value("CC1(C)CCC(CN2CCN(c3ccc(C(=O)NS(=O)(=O)c4ccc(NCC5CCOCC5)c([N+](=O)[O-])c4)c(Oc4cnc5[nH]ccc5c4)c3)CC2)=C(c2ccc(Cl)cc2)C1 [Venetoclax] + CCN(CCO)CCCOc1ccc2c(Nc3cc(CC(=O)Nc4cccc(F)c4)[nH]n3)ncnc2c1 [AZD2811] (first compound max 1 µM, 7x7, partner max 1 µM)")
"1 (yes)"
>>> label_value("NC1(C(=O)N[C@@H](CCO)c2ccc(Cl)cc2)CCN(c2ncnc3[nH]ccc23)CC1 [Capivasertib] + C[C@@H]1COCCN1C2=NC(=NC(=C2)C3(CC3)[S@](=N)(=O)C)C4=C5C=CNC5=NC=C4 [AZD6738] (first compound max 10 µM, 7x7, partner max 10 µM)")
"0 (no)"
>>> label_value("CCN(CCO)CCCOc1ccc2c(Nc3cc(CC(=O)Nc4cccc(F)c4)[nH]n3)ncnc2c1 [AZD2811] + C[C@@H]1COCCN1C2=NC(=NC(=C2)C3(CC3)[S@](=N)(=O)C)C4=C5C=CNC5=NC=C4 [AZD6738] (first compound max 1 µM, 7x7, partner max 10 µM)")
"1 (yes)"

Exercise: # bool: Bliss excess of C=CCn1c(=O)c2cnc(Nc3ccc(N4CCN(C)CC4)cc3)nc2n1-c1cccc(C(C)(C)O)n1 [AZD1775] + C1CN(CCC1(C(=O)N[C@@H](CCO)C2=CC=C(C=C2)Cl)N)C3=NC=NC4=C3C=CN4 [Capivasertib] (first compound max 3 µM, partner max 3 µM) >= -0.02
Key: 1 (yes)

Exercise: # bool: Bliss excess of CC1(C)CCC(CN2CCN(c3ccc(C(=O)NS(=O)(=O)c4ccc(NCC5CCOCC5)c([N+](=O)[O-])c4)c(Oc4cnc5[nH]ccc5c4)c3)CC2)=C(c2ccc(Cl)cc2)C1 [Venetoclax] + C[C@@H]1COCCN1C2=NC(=NC(=C2)C3(CC3)[S@](=N)(=O)C)C4=C5C=CNC5=NC=C4 [AZD6738] (first compound max 1 µM, 7x7, partner max 10 µM) >= -0.02
Key: 0 (no)
